Reported PBM binding z-score values are given for each entry in this list.
tested on: RARa:RXR (NR concentration 270 nM, RXRa partner concentration 90 nM); test: PBM binding z-score (relative to random genomic background probes); higher = stronger binding; sequences stand for … in GC…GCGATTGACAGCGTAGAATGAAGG
parameter.measured: PBM binding z-score

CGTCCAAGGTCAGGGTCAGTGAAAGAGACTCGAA	4.22
ATCGAAAGGTCGTCAGGTGAGTATACAGAAAGGC	3.91
CGTCCAAGGTCATAGGAGGTCAGTCAAGACAGAT	5.99
GCTGCTAGGTCAGGCTGGTCAGCTAACGGGTACG	0.0805
CCAGACAGGTGAGAAGGTAACTCTGCCTCGATTA	0.441
GCATATAGGTACTACAAGGTGAAAGTCCGATTGT	1.36
TCTGCTAGGTCATTTGGTCAGCTAACGAGCTGCC	2.1
CCTACTGGACCATCAGGTCATTGATATCAACGTT	2.25
CGTTCAAGGTCAGCAGGTCAGTGAAAGCGACGTG	5.42
GCAGACAGGTGAAGCGCAGGTAACTCAGGGTGGC	-0.125
CCCTACGGGTCACGAGGTTATAGCACGACGAGCG	5.9
TCTCGGAGGACACAAAAGGTCAGAGCTCGACATC	4.29
AGTCAAAGTTCATCTAGGTGACGTAAGATATGCT	3.75
AGAATGAGCTTACCAAAGATCAGGGAAACGCTTG	-0.0887
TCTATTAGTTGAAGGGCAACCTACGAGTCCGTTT	0.893
CCTTACGGGTCACTGGCAGGTTATAGCATTTGGA	5.02
AGAACGAGGGCACGCTGAGTTAATAGCAGAGTAG	0.718
CAAACTAGGACACAGAGGTCAAAGTCCGTGCGTA	6.38
GCATATAGGTAATACAAGGTGCAAGTCCGATTGT	0.538
ATCGAAAGGTCTAGGTGAGTATAGAGAAAGGGAA	0.406
ATCTCTAGGTTAGACTCAGTTCAGTGAAGAACGC	1.13
TCGAGTAGGTTACCAATGCGGCATTCAGCTTTCT	-0.26
TCTATCAGTTGATTAGGGCAACCGAAACAGCGGA	0.11
CCTAGTTGGTCAGGAGGTCTCACACCGGATATGA	0.0681

###

# PBM binding z-score values compiled below
tested on: RARg:RXRa (NR concentration 270 nM, RXRa partner concentration 90 nM); experiment: PBM binding z-score (relative to random genomic background probes); higher = stronger binding; sequences stand for … in GC…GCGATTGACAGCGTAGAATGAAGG
parameter.measured: PBM binding z-score

CCGTGTAGGTTATGGGGCATTCAGGCAACGGTGA	0.81
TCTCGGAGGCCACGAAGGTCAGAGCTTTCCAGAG	3.08
TCAGACAGGTGATGGTAACTCAGGTACGCAGTCG	0.447
ACTTACCGGTCAACGAGGTTATAGCACGCGTATA	3.45
TGATATAGGTAAATGCTAGGTGAAAGTCCGATCT	0.276
ATATGTAGGTTATCGGGTAATTCAGTTTGCGCAT	0.94
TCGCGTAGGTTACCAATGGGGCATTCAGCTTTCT	1.42
ACTAGCCGGCCAAGTTTGGGTCACTCAAACAAAG	1.35
CAAACTAGGTCACGAAAGGTCAGAGTCGAATGAC	7.33
CTTCCAAGGTCAAAGGTCAGTGAAGAGATGACGG	8.63
AATACAGGGTCATCGTAGGCCAAAGTACGCACAG	5.86
ATCTCTCGGTAAAGATAGTTCAGTGAATGCAAAT	0.757
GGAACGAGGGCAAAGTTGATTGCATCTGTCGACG	1.89
ACTATTAATTGACTTAGGGCAACCGATACGACGC	0.766
TATACAGAGTCAAAGGCCAGAGTACGAATGTCGA	0.902
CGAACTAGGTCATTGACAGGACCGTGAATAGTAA	3.59

###

test system: PPARg:RXRa IVT, anti-PPARg (NR concentration 270 nM, RXRa partner concentration 90 nM); assay: PBM binding z-score (relative to random genomic background probes); higher = stronger binding; sequences stand for … in GC…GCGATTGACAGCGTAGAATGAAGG
Quick rule for you: PBM binding z-score at 3 or higher means Y, lower means N.

GGTAGTTGGTCAGTAAAAGGTCACACACCGGTCG	Y
TAGCCTAGGTAATGGGCCAGTATACCACGCGAAC	N
AGAACGAGGGCAATGAGTTGATAGCTCGGGTGGC	N
CGAACTAGGTCATCCAGGACAGTTAATACATTGA	Y
TCTGCTAGGTCAGTTAGTCAGCTAACGAGCTGCC	N
ATCACTAGGTAAAGATAGTTCAGTGAATGCAAAT	N
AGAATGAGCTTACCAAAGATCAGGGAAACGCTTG	N
CCGAGCAGGCCAGGGTCACTCAAGCATTTCGCTT	N
TATACAGGGTCAGAGGCCAGAGTACGAATGTCGA	Y
TCATATAGGTAAATGCTAGGTGAAGGTCCGATCT	N
ATATGTAGGTTAAGGTTCATTCAGGTTGGTTCGC	Y
CCTACTGGTCCATTCAGAGGTCATTGATCATATG	N
CCAACTGGGCCAAAGGTCATTGATTCCAATGCTC	Y
GCTGCCAGGTCAACTGATGGTCAGCTAAAGCTCG	N
TCGAGTAGGTTAGGGGCACTCAGAATGGCGTCGA	N
CCTAGTTGGTCAAGGTCAGACACGCTATAGGTAC	N
GCATATAGGTAATACAAGGTGAAAGCCCGATTGT	Y
CGTCAAAGTTCAACTAAGGTAACATAAAGCACGC	N
TCTTGTCGATCAGCAGGTTAAGAAAGCTGGCCAA	N
TCTTGTAGATCAAGCAGATTAAGAAAGCCTGAGT	N
CCAGACAGGTGAAAGGTAACTTAGTCTGGTACGC	N
AATACAGGGTTATCGTAGGCCAGAGTACGCACAG	N
ATATGTAGGTGAGCTGGGGTCATTCAGACTAGGC	Y
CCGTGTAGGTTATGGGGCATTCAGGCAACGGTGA	N
AGAACGAGGGCAATGAGTTGGTAGCACGGGTGGC	N
TGTCAAAGTTCAAAGGTAACGAAAGTATCCACAC	Y
CGAACTAGGTCAGAACAGGACAGCGAAGGATGAT	Y
GCTGCTAGGTCAACTGATGGTTAGCTAAAGCTCG	Y
TCAAGTTGGTCAAAGGTCACACACTCGAAATGCG	Y
CTCGAAAGGTCGGTTGAGGTGAATATACGGATAA	N
TCTTGTAGATCAATAGAGGTTTAGAAAGTGCGCT	N
TCTATTAGTTGATGAGGGCAACCGAAACAGCGGA	N
GCTGCTAGGTCAACTGATGGGCAGCTAAAGCTCG	Y
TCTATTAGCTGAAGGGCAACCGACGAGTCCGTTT	N
CTCGAAAGCTCGTGCTCAGGTGAGTATACCAAAC	N
ATATGTAGGTTACATCCGTGTCATTCAGGCTATG	Y
GCTGCTAGGGCAACTGATGGTCAGCTAAAGCTCG	N
ACTAGCGGGCCAAGTTTGGGTCACTCAAACAAAG	N
ACGATTAGTTGAGACGAGGGCAACCGATAGGTTG	N
CGTCCAAGGTCAGCACGTCAGTGAAAGCGACGTG	N
TCTTGTAGATCAACAGGAGGTTAAGAGAGATCGA	N
ATATGTAGGTTACTTCCGGGTCATTCAGGCTATG	Y

###

tested on: VDR:RXRa (NR concentration 270 nM, RXRa partner concentration 90 nM); assay: PBM binding z-score (relative to random genomic background probes); higher = stronger binding; sequences stand for … in GC…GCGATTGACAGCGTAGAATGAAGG
Returns the class for an entry based on its PBM binding z-score. Class ranges: range A: < 0.7; range B: ≥ 0.7 and < 3; range C: ≥ 3

TCATATAGGTAAATGCTAGGTGAAAGACCGATCT	range B
AGTCAAAGTTAAGGACGAGGTAACGTAAAGCACG	range A
GGAACGAAGGCAAGTTGATAGCAGAGTTTGATGG	range A
ACTATCAGGCCAAGTTTGGGTCACTCAAACAAAG	range B
ACTAGTTGGTCAGCTGAGGTCACAAACAATTCGG	range C
CCTAGTTGGTCAGGAGGTCACACAACGGATATGA	range C
TCATATAGGTAAAGTTGAAAGTCGAACGATATGA	range A
TATACAGGGTCCAAGGCCAGAGTACGAATGTCGA	range B
CGTCCAAGGTAATAGGAGGTCAGTGAAGACAGAT	range B
CCGACTGTGGCAGAAAGGTTACCATACCATCCGG	range A
ACTATTAGTTGAGACGAGGGCAATCGATAGGTTG	range B
CGAACTAGGTCAGAACAGGCCAGTGAAGGATGAT	range A
AATACAGGGTCACTAGGCTAGAGTAGGTACGAAT	range C
TCTTGTAGATCATGCAGGTTAAGAAAGCCTGAGT	range B
GCTTACGGCTCAAAGGTTATAGCATGAATAGAAT	range B
CAAACTTGGTCAAAGGTCAAAGTCGAGCCAACCA	range C
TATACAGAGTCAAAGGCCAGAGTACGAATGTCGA	range A
TCTATTTGTTGATTAGGGCAACCGAAACAGCGGA	range B
TGAATGAGGTTACAGATCAGGGAACGTGGCGTCG	range B
ACTATTAGTTGACTTAGGGCAAACGATACGACGC	range A
CTCGAAAGGTGGGTTGAGGTGAGTATACGGATAA	range B
CGTCCAAGGTCAGCAGGTTAGTGAAAGCGACGTG	range C
CCAAGCAGGCCAATCTGGGTCACTCAAGGCTTGA	range B
ATATGTAGGTTATCGGATCATTCAGTTTGCGCAT	range B
TGAGTGAGGTTATAAGATCAGGGAACGTTGCAAA	range B
CGTCCAAGGTCAGCAGGTCAGTCAAAGCGACGTG	range C
AATACAGGGTCACCGTAGGCCAGAGTACGCACAG	range C
ATATGTAGGTTATCGGGTCATTCACTTTGCGCAT	range C
ACTAGCAGGCCAAGTTTGGGTCACTAAAACAAAG	range A
GCAGACCGGTGAAACGCAGGTAACTCAGGGTGGC	range A
CGTCAAAGTTCAAATAAGGTAACGTAAAGCACGC	range C
ACAGACAGGTGATGAAGGTAACCCAGGCTATCAT	range A
TCATATAGATAAACAGGTGAAAGTCCGTAAGTTA	range B
TCATACAGGTAAACAGGTGAAAGTCCGTAAGTTA	range B
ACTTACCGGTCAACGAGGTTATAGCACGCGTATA	range C
AGCCAAAGTTCATCTAGGTAACGTAAGATATGCT	range C
CAAACTAGATCACAGAGGTCAAAGTCCGTGCGTA	range C
TCTTGTAGATCAATAGGAGGTTAAGAAAGATCGA	range B
CGAACTAGCTCATTGACAGGACAGTGAATAGTAA	range A
CATACAGGTTCAGCTAGGCCAGAGTAGGGACGGC	range B
CCAGACAGGTGAGAAGGTTACTCAGCCTCGATTA	range A

Source: the supplement of paper PMC6555819
